target: Serine/threonine-protein kinase Nek2 (Homo sapiens) (UniProt P51955); experiment: Inhibition of NEK2 (unknown origin) at 1 uM relative to control
Sequence (P51955 whole entry): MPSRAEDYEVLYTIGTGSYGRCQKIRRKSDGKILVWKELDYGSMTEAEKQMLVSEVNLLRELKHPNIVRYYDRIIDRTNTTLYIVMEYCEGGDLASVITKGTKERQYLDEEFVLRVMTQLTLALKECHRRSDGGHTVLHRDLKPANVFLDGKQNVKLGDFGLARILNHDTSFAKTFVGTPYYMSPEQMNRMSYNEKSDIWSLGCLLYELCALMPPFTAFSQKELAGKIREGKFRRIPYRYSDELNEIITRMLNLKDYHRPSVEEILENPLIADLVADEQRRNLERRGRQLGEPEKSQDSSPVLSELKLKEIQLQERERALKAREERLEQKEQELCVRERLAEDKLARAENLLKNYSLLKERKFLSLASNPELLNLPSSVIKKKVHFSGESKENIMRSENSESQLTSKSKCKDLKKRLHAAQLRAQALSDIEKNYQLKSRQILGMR
The reader will find reported inhibition values listed item by item below.
endpoint-name: inhibition (%)

[
  {
    "record-smiles": "CC(C)c1nc(-c2cccc(NS(=O)(=O)c3ccccc3)c2)c(-c2ccnc(Nc3ccc4c(c3)CN(C)CC4)n2)s1",
    "endpoint-unit": "%",
    "test-result": 66
  },
  {
    "record-smiles": "COc1cc(Nc2ncc3c(C)nc(-c4cc5ccccc5[nH]4)n3n2)cc(OC)c1OC",
    "endpoint-unit": "%",
    "test-result": 70
  },
  {
    "record-smiles": "CC(C)Oc1ccc2c(-c3ccnc(Nc4ccc(N5CCN(C)CC5)cc4)n3)cnn2n1",
    "endpoint-unit": "%",
    "test-result": 6.7
  },
  {
    "record-smiles": "CC(C)(C)c1nc(-c2cccc(NS(=O)(=O)c3c(F)cccc3F)c2F)c(-c2ccnc(N)n2)s1",
    "endpoint-unit": "%",
    "test-result": 7
  },
  {
    "record-smiles": "Cn1cc(-c2ccc3c(c2)CCN3C(=O)Cc2cccc(F)c2)c2c(N)ncnc21",
    "endpoint-unit": "%",
    "test-result": 73
  }
]

---

inhibition reference
biological target: Serine/threonine-protein kinase Nek5 (Homo sapiens) (UniProt Q6P3R8); assay: Inhibition of NEK5 (unknown origin) at 1 uM relative to control
Sequence (Q6P3R8 whole entry): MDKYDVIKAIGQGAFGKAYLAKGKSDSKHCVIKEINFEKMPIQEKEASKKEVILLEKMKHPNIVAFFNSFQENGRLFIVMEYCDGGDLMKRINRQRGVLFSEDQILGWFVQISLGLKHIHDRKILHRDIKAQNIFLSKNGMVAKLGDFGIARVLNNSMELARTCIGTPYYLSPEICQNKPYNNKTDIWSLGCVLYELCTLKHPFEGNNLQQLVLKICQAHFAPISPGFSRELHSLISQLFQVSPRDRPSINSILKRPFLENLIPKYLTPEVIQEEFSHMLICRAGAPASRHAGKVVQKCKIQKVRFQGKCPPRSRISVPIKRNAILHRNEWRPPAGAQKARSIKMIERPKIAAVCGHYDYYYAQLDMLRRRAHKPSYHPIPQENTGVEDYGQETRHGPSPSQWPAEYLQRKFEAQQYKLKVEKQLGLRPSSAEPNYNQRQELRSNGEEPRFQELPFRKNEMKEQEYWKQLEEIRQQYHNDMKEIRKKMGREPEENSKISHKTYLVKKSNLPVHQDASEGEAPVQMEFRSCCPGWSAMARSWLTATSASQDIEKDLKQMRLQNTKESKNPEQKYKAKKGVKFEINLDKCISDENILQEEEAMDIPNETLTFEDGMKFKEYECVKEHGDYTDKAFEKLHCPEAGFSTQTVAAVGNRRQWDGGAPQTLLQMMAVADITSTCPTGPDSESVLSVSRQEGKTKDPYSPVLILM
endpoint-name: inhibition (%)

[
  {
    "record-smiles": "NCCNS(=O)(=O)c1ccc(-c2ccnc3[nH]ccc23)cc1",
    "target-system": "Serine/threonine-protein kinase Nek5 (Homo sapiens) (UniProt Q6P3R8)",
    "endpoint-unit": "%",
    "test-result": 44
  },
  {
    "record-smiles": "COc1cccc(CC(=O)N2CCc3cc(-c4cn(C)c5ncnc(N)c45)ccc32)c1",
    "target-system": "Serine/threonine-protein kinase Nek5 (Homo sapiens) (UniProt Q6P3R8)",
    "endpoint-unit": "%",
    "test-result": 24
  },
  {
    "record-smiles": "c1ccc(-c2ccnc3[nH]ccc23)cc1",
    "target-system": "Serine/threonine-protein kinase Nek5 (Homo sapiens) (UniProt Q6P3R8)",
    "endpoint-unit": "%",
    "test-result": 8
  },
  {
    "record-smiles": "Cn1cc(-c2ccc3c(c2)CCN3C(=O)Cc2cc(F)cc(C(F)(F)F)c2)c2c(N)ncnc21",
    "target-system": "Serine/threonine-protein kinase Nek5 (Homo sapiens) (UniProt Q6P3R8)",
    "endpoint-unit": "%",
    "test-result": 0
  },
  {
    "record-smiles": "CC(C)Oc1ccc2c(-c3ccnc(Nc4ccc(N5CCN(C)CC5)cc4)n3)cnn2n1",
    "target-system": "Serine/threonine-protein kinase Nek5 (Homo sapiens) (UniProt Q6P3R8)",
    "endpoint-unit": "%",
    "test-result": 0
  },
  {
    "record-smiles": "Cc1ccccc1CC(=O)N1CCc2cc(-c3cn(C)c4ncnc(N)c34)ccc21",
    "target-system": "Serine/threonine-protein kinase Nek5 (Homo sapiens) (UniProt Q6P3R8)",
    "endpoint-unit": "%",
    "test-result": 34
  },
  {
    "record-smiles": "COc1ccc(C2=C(Nc3cccc(C(=O)O)c3)C(=O)NC2=O)cc1",
    "target-system": "Serine/threonine-protein kinase Nek5 (Homo sapiens) (UniProt Q6P3R8)",
    "endpoint-unit": "%",
    "test-result": 0
  },
  {
    "record-smiles": "CS(=O)(=O)Nc1ccc(-c2ccnc3[nH]ccc23)cc1",
    "target-system": "Serine/threonine-protein kinase Nek5 (Homo sapiens) (UniProt Q6P3R8)",
    "endpoint-unit": "%",
    "test-result": 2
  },
  {
    "record-smiles": "Cc1ccc(CC(=O)N2CCc3cc(-c4cn(C)c5ncnc(N)c45)ccc32)cc1",
    "target-system": "Serine/threonine-protein kinase Nek5 (Homo sapiens) (UniProt Q6P3R8)",
    "endpoint-unit": "%",
    "test-result": 45
  },
  {
    "record-smiles": "O=c1[nH]ccc2nc(N[C@@H]3CCCNC3)nc(Nc3ccc(S(=O)(=O)N4CCOCC4)cc3)c12",
    "target-system": "Serine/threonine-protein kinase Nek5 (Homo sapiens) (UniProt Q6P3R8)",
    "endpoint-unit": "%",
    "test-result": 49
  }
]
